Test system: Spodoptera frugiperda
Assay comment: Spodoptera frugiperda spray test
Format: in vivo
Run conditions: application rate 500 g/ha, after 7 days, maize leaf discs
The reader will find reported efficacy (caterpillars killed) values listed item by item below.

For orientation, consider the following solved cases.
N#Cc1ccc(CNC(=O)c2cc(-c3ccc(Br)c(F)c3)cc(NC(=O)C3CC3)n2)cc1
100%
N#Cc1ccc2[nH]nc(NC(=O)c3cc(-c4ccc(OC(F)(F)F)cc4)cc(NC(=O)C4CC4)n3)c2c1
83%
N#Cc1ccc(CNC(=O)c2cc(-c3cc(F)c(OC(F)(F)F)c(F)c3)cc(NC(=O)C3CC3)n2)cc1
100%
CC(NC(=O)c1cc(-c2ccc(OC(F)(F)F)cc2)cc(NC(=O)C2CC2)n1)c1ccc(C#N)cc1 (single isomer, unassigned) [Example I-219]
83%
N#Cc1ccc(CNC(=O)c2cc(-c3cc(F)c(C(F)(F)C(F)(F)F)c(F)c3)cc(NC(=O)C3CC3)n2)cc1
100%

Now for another entry.
For the molecule N#Cc1c(F)cc(CNC(=O)c2cc(-c3ccc(OC(F)(F)F)cc3)cc(NC(=O)C3CC3)n2)cc1F , give its reported efficacy (caterpillars killed).
100%

* * *

Assay comment: log P by HPLC on reversed-phase column (C 18), EEC Directive 79/831 Annex V.A8
Format: physicochemical
Run conditions: log P, neutral range; HPLC on reversed-phase column (C 18), 55° C.
Readout: LOGP_NEUTRAL
Please give the numeric answer without any surrounding text.

For orientation, consider the following solved cases.
N#Cc1ccc(CNC(=O)c2cc(-c3ccc(OC(F)(F)F)cc3)cc(NC(=O)C3(C4CC4)CC3)n2)cc1
3.32
N#CC1(NC(=O)c2cc(-c3ccc(OC(F)(F)F)cc3)cc(NC(=O)C3CC3)n2)CCC1
3.68
N#Cc1cc(F)c(CNC(=O)c2cc(-c3ccc(C(F)(F)F)cc3)cc(NC(=O)C3CC3)n2)c(F)c1
3.87
N#Cc1ccc(CNC(=O)c2cc(-c3ccc(OC(F)(F)F)cc3)cc(NC(=O)C3(C#N)CC3)n2)cc1
3.88
CC(C)C(=O)N(C)c1cc(-c2ccc(OC(F)(F)F)cc2)cc(C(=O)NCc2ccc(C#N)cc2)n1
3.89
O=C(N[C@H]1CC[C@@H](C(F)(F)F)CC1)c1cc(-c2ccc(OC(F)(F)F)cc2)cc(NC(=O)C2CC2)n1
4.72
O=C(NCC(F)(F)F)c1cc(-c2ccc(C(F)(F)F)cc2)cc(NC(=O)C2CC2)n1
3.77
O=C(NCc1ccc2c(c1)OC(F)(F)O2)c1cc(-c2ccc(OC(F)(F)F)cc2)cc(NC(=O)C2CC2)n1
4.61

For the molecule O=C(NCc1ccc(Cl)c(F)c1)c1cc(-c2ccc(C(F)(F)F)cc2)cc(NC(=O)C2CC2)n1 , give its reported LOGP_NEUTRAL.
4.44

For the molecule N#Cc1ccc(CNC(=O)c2cc(-c3ccc(C(F)(F)F)c(F)c3)cc(NC(=O)C3CC3)n2)cc1 , give its reported LOGP_NEUTRAL.
3.82

For the molecule COC(=O)C1(NC(=O)c2cc(-c3ccc(OC(F)(F)F)cc3)cc(NC(=O)C3CC3)n2)COC1 , give its reported LOGP_NEUTRAL.
3.17

For the molecule CC(NC(=O)c1cc(-c2ccc(C(F)(F)F)cc2)cc(NC(=O)C2CC2)n1)C1CC1 (centres unmarked) , give its reported LOGP_NEUTRAL.
4.06

For the molecule CCCCNC(=O)c1cc(-c2ccc(OC(F)(F)F)cc2)cc(NC(=O)C2CC2)n1 , give its reported LOGP_NEUTRAL.
4.06

For the molecule Cc1cc(-c2cc(NC(=O)C3CC3)nc(C(=O)NCc3ccc(C#N)cc3)c2)ccc1OC(F)(F)F , give its reported LOGP_NEUTRAL.
4.11

For the molecule O=C(NCc1ccccn1)c1cc(-c2ccc(OC(F)(F)F)cc2)cc(NC(=O)C2CC2)n1 , give its reported LOGP_NEUTRAL.
3.30

For the molecule O=C(NCc1ccc(-c2ncon2)cc1)c1cc(-c2ccc(OC(F)(F)F)cc2)cc(NC(=O)C2CC2)n1 , give its reported LOGP_NEUTRAL.
3.84

For the molecule N#Cc1ccc(CNC(=O)c2cc(-c3ccc(OC(F)=C(F)F)cc3)cc(NC(=O)C3CC3)n2)cc1 , give its reported LOGP_NEUTRAL.
3.82

For the molecule CC(C)C(=O)Nc1cc(-c2ccc(OC(F)(F)F)cc2)cc(C(=O)NCc2ccc(-c3cnco3)cc2)n1 , give its reported LOGP_NEUTRAL.
3.87

For the molecule N#Cc1ccc(CNC(=O)c2cc(-c3ccc(C(F)(F)C(F)(F)F)cc3)cc(NC(=O)C3CC3)n2)cc1 , give its reported LOGP_NEUTRAL.
4.07

For the molecule O=C(NCc1ccc(C(F)(F)F)cc1F)c1cc(-c2ccc(OC(F)(F)F)cc2)cc(NC(=O)C2CC2)n1 , give its reported LOGP_NEUTRAL.
4.74

* * *

System: Spodoptera frugiperda
Assay comment: Spodoptera frugiperda spray test
Format: in vivo
Run conditions: Spodoptera frugiperda, foliar, 168 h; application rate 500 g/ha, after 7 days, maize leaf discs; read-out: efficacy (caterpillars killed)
Readout: pest or weed control at 500 g/ha

For orientation, consider the following solved cases.
CN(C(=O)c1cc(-c2ccc(C(F)(F)F)cc2)cc(NC(=O)C2CC2)n1)C1CC1 [Example I-036]
83%
COC(=O)N(Cc1ccc(C#N)cc1)C(=O)c1cc(-c2ccc(OC(F)(F)F)cc2)cc(NC(=O)C2CC2)n1 [Example I-231]
100%
N#Cc1ccc(CNC(=O)c2cc(-c3ccc(C(F)(F)F)cn3)cc(NC(=O)C3CC3)n2)cc1 [Example I-174]
100%
N#Cc1ccc(/C=N/NC(=O)c2cc(-c3ccc(OC(F)(F)F)cc3)cc(NC(=O)C3CC3)n2)cc1 [Example I-252]
100%
CN(C(=O)C1CC1)c1cc(-c2ccc(OC(F)(F)F)cc2)cc(C(=O)NCc2ccc(C#N)cc2)n1 [Example I-215]
83%
O=C(NC(=O)C1CC1)c1cc(-c2ccc(C(F)(F)C(F)(F)F)c(F)c2)cc(NC(=O)C2CC2)n1 [Example I-264]
100%

Output reported pest or weed control at 500 g/ha of the compound CCc1cc(C(F)(F)C(F)(F)F)cc(C)c1-c1cc(NC(=O)C2CC2)nc(C(=O)NCc2ccc(C#N)cc2)c1 [Example I-148] on Spodoptera frugiperda.
100%

Output reported pest or weed control at 500 g/ha of the compound COC(=O)N(C(=O)C1CC1)c1cc(-c2ccc(OC(F)(F)F)cc2)cc(C(=O)NCc2ccc(C#N)cc2)n1 [Example I-233] on Spodoptera frugiperda.
100%

Output reported pest or weed control at 500 g/ha of the compound N#Cc1ccc(CNC(=O)c2cc(-c3ccc(Cl)cc3)cc(NC(=O)C3CC3)n2)cc1 [Example I-020] on Spodoptera frugiperda.
100%

Output reported pest or weed control at 500 g/ha of the compound N#Cc1ccc(CNC(=O)c2cc(-c3ccc(C(F)(F)F)nc3)cc(NC(=O)C3CC3)n2)cc1 [Example I-123] on Spodoptera frugiperda.
100%

* * *

Assay comment: log P by HPLC on reversed-phase column (C 18), EEC Directive 79/831 Annex V.A8
Assay type: physicochemical
Run conditions: log P, neutral range; HPLC on reversed-phase column (C 18), 55° C.
Could you mark each record 1.0 if its LOGP_NEUTRAL falls strictly under 4, and 0.0 if it equals or exceeds it?

N#Cc1ccc(CCNC(=O)c2cc(-c3ccc(C(F)(F)F)cc3)cc(NC(=O)C3CC3)n2)cc1 [Example I-046]
1.0

Problem: For the compound Cn1ccc(-c2ccc(CNC(=O)c3cc(-c4ccc(OC(F)(F)F)cc4)cc(NC(=O)C4CC4)n3)cc2)n1 [Example I-100] , is LOGP_NEUTRAL under 4?
1.0

Problem: For the compound N#Cc1ccc(CNC(=O)c2cc(-c3ccc(Br)cc3)cc(NC(=O)C3CC3)n2)cc1 [Example I-053] , is LOGP_NEUTRAL under 4?
1.0

Problem: For the compound O=C(NCC1CCCC1)c1cc(-c2ccc(OC(F)(F)F)cc2)cc(NC(=O)C2CC2)n1 [Example I-170] , is LOGP_NEUTRAL under 4?
0.0

Problem: For the compound N#Cc1ccc(CNC(=O)c2cc(-c3ccc(C(F)(F)F)cn3)cc(NC(=O)C3CC3)n2)cc1 [Example I-174] , is LOGP_NEUTRAL under 4?
1.0

Problem: For the compound O=C(NC1CCCCC1)c1cc(-c2ccc(OC(F)(F)F)cc2)cc(NC(=O)C2CC2)n1 [Example I-168] , is LOGP_NEUTRAL under 4?
0.0

Problem: For the compound CC(=O)Nc1cc(-c2ccc(C(F)(F)F)cc2)cc(C(=O)NCc2ccc(C#N)cc2)n1 [Example I-017] , is LOGP_NEUTRAL under 4?
1.0

Problem: For the compound O=C(Cc1ccc(Br)cc1)Nc1cc(-c2ccc(OC(F)(F)F)cc2)cc(C(=O)NC2CC2)n1 [Example I-125] , is LOGP_NEUTRAL under 4?
0.0

Problem: For the compound CCNC(=O)c1cc(-c2ccc(C(F)(F)F)cc2)cc(NC(=O)C2CC2)n1 [Example I-016] , is LOGP_NEUTRAL under 4?
1.0

Problem: For the compound Cn1nccc1-c1ccc(CNC(=O)c2cc(-c3ccc(OC(F)(F)F)cc3)cc(NC(=O)C3CC3)n2)cc1 [Example I-107] , is LOGP_NEUTRAL under 4?
1.0

Problem: For the compound NS(=O)(=O)c1ccc(CNC(=O)c2cc(-c3ccc(OC(F)(F)F)cc3)cc(NC(=O)C3CC3)n2)cc1 [Example I-186] , is LOGP_NEUTRAL under 4?
1.0

Problem: For the compound N#Cc1ccc(CNC(=O)c2cc(-c3ccc(C(F)(F)F)cc3)cc(NC(=O)C3CC3)n2)c(F)c1 [Example I-077] , is LOGP_NEUTRAL under 4?
1.0

Problem: For the compound N#Cc1ccc(CNC(=O)c2cc(-c3ccc4c(c3)OC(F)(F)C(F)(F)O4)cc(NC(=O)C3CC3)n2)cc1 [Example I-172] , is LOGP_NEUTRAL under 4?
0.0

Problem: For the compound N#Cc1ccc(CNC(=O)c2cc(-c3ccc(S(=O)(=O)C(F)(F)F)cc3)cc(NC(=O)C3CC3)n2)cc1F [Example I-120] , is LOGP_NEUTRAL under 4?
1.0

Problem: For the compound CCc1cc(C(F)(F)C(F)(F)F)cc(C)c1-c1cc(NC(=O)C2CC2)nc(C(=O)NCc2ccc(C#N)cc2)c1 [Example I-148] , is LOGP_NEUTRAL under 4?
0.0

Problem: For the compound CC(C)C(=O)Nc1cc(-c2ccc(C(F)(F)F)cc2)cc(C(=O)NC(C)c2ccc(C#N)cc2)n1 (centres unmarked) [Example I-087] , is LOGP_NEUTRAL under 4?
0.0

src = patent US20190053492A1
